Tested on: MS2 coat protein
Assay: apparent KD of MS2 coat protein; designed switch direction (-1 OFF switch, 1 ON switch): 1; higher = weaker reporter binding
Details: input ligand: microRNA oligo, concentration not stated
Rule: fulfilled for apparent KD of MS2 coat protein not less than 30 nM, not fulfilled for anything less.

Some solved cases for reference:
- macromolecule-sequence: "UUAUUAUUUACAUGAGGAUCACCCAUGUUUUUAUGUCAGAGACAGGAUAUAGUAGUCUCGUUUUACUAGAAGGGUCUUUUUAUU [JR_SSNG3_Sub017] (Eterna round: R96, puzzle: Same State NG 3)"
  target-desc: "MS2 coat protein"
  class-label: "not fulfilled"
- macromolecule-sequence: "UAAUUAAGUCAAGGAUAUCACGUCGAAUAGACGUGAGAAGGUGACCAAUACAUGAGGAUCACCCAUGUAAUACAUGAAUAAUUA [SSNG1/12-B1] (Eterna round: R96, puzzle: Same State NG 1)"
  target-desc: "MS2 coat protein"
  class-label: "fulfilled"
- macromolecule-sequence: "ACUCUCACAGUAGGAUAUGUAGGAUAUGCCUACAUGAGGAUCACCCAUGUAAACAUGGCAGAAGGAUAGAAGGACUGACAUGGG [pwkr ssNG2 2FMN + 1F5.3] (Eterna round: R96, puzzle: Same State NG 2)"
  target-desc: "MS2 coat protein"
  class-label: "fulfilled"
- macromolecule-sequence: "GGAGAGAAGUGAGGAUAUGCAUGGAAGACACAUGAGGAUCACCCAUGUGGGAGGGAAACCGGGAGGUAGAAGGCACUGGGAAGA [AK SSNG2-V2-25] (Eterna round: R96, puzzle: Same State NG 2)"
  target-desc: "MS2 coat protein"
  class-label: "not fulfilled"
- macromolecule-sequence: "ACAUGAAAUUGAGGAUAUUUUGUACCUACAUGUGACAUGAGGAUCACCCAUGUGGUAAGUAUGAGAAAGAAGGCAAAGAUAUGU [Equivalence 11 - Jieux - Same State NG 2] (Eterna round: R96, puzzle: Same State NG 2)"
  target-desc: "MS2 coat protein"
  class-label: "fulfilled"

Now look at this entry.
Exam item: Confirm if apparent KD of MS2 coat protein reported for the sequence UACAUACGCGGAGGAUAUGGGCGAGGCGCAGAGGUCUGCGUCAAAACAUGAGGAUCACCCAUGUCCCAGAAGGCCGCGUAAACU [Enisen] (Eterna round: R96, puzzle: Same State NG 2) is 30 nM or above.
Marked response: fulfilled

====

Examples of sequences with documented apparent KD of MS2 coat protein follow.
System: MS2 coat protein
Assay: apparent KD of MS2 coat protein; higher = weaker reporter binding
Conditions: Eterna round: R107; input ligand: theophylline 20 uM
Expressed in nM, but write only the number.

Consider the following illustrative entries.
- macromolecule-sequence: "GUAAUGAUAAGAAGGAGCGUCGAAAAUGGGUAAACAUGAGGAUCACCCAUGUAAAGGGAACGACAGGUAGGUCGCUUAUUAUUAC [AstromonsSSArgB#21]"
  units-symbol: "nM"
  apparent KD of MS2 coat protein: 356
- macromolecule-sequence: "ACUAGGCUCGGAAACGAGCCUAGGACAGAAGGAGCGUGGAUUAACACAGGUAGGUCGCUGACAUGAGGAUCACCCAUGUAUUAUU [SSAA #2]"
  units-symbol: "nM"
  apparent KD of MS2 coat protein: 38.6
- macromolecule-sequence: "AAUAGCUUGAGGAUCACCCAAGUAAAAGAUACCAGAGUGAUGAUCCUCCCUUGGCAGCUUAACGCUGAUUGAUUACAAUCAGCGA"
  units-symbol: "nM"
  apparent KD of MS2 coat protein: 93.9
- macromolecule-sequence: "AGUGGUGCAACUGAUACCAGAUUUAUACGAGACAUGAGGAUCACCCAUGUCGAAAGACAAAUCCCUUGGCAGCAGACACGAUCCC [theeternabot_sameState_MS2_Theo_B_25]"
  units-symbol: "nM"
  apparent KD of MS2 coat protein: 10.4
- macromolecule-sequence: "ACACAUGAGGAUCAUCCAUGUGCCCAUGAAGGAGCGUGGGAAACCACAGGUAGGUCGCAUGACAUGAGGAUCACCCAUGUUUAUU [#03 Exclusion - Arginine A]"
  units-symbol: "nM"
  apparent KD of MS2 coat protein: 203

Exam item: Please look up its apparent KD of MS2 coat protein: CGUCAACAUGAGGAUCACCCAUGUUUCGAUACCAGUGACCCUCUCCACCCUUGGCAGCGAGCGCCCGCGCCUGAUAAAUCUUCUA [theeternabot_sameState_MS2_Theo_A_18]
Marked response: 16.4

Exam item: Look at this sequence and give its reported apparent KD of MS2 coat protein. UUAUUUAUAGGCGAUACCAGCCGAAUGGCCGCAAAUCCUAACAUGAGGAUCACCCAUGUCGGCCCUUGGCAGCGCCUAUGGGUUU [XTheo B #27]
Marked response: 255

Exam item: // query apparent KD of MS2 coat protein value for entry GUGAGGUUUGAUGAUACCAGAUGUGGUGGGAACAUGAGGAUCACCCAUGUUGUGAAACAGGUCCCUUGGCAGCAUGAGAGAGCUU [TheoB-ms2@32]
Marked response: 89.3

Exam item: Which measured apparent KD of MS2 coat protein value corresponds to UCACAUGAGGAUCACCCAUGUACAGGCGAUACCAGCCGUACAUUGGGCCCUUGGCAGCGCACCGAGACCUUUUAAAGCACUUCGG [Er] ?
Marked response: 103

Exam item: Consider the sequence shown here: AACGGUCGUACCGGAAUGAUCCUCAUGUAACGAGGACCGGUACGGCCGCCACUCGAUAACAUGAGGAUCACCCAUGUAAUAAUAA [|T'-M'-Trp-Ms2|_Design11] What is its recorded apparent KD of MS2 coat protein?
Marked response: 17

Exam item: Item under review: CAGAACAUGAGGAUCACCCAUGUCAGGGAUACCAGCUCAGACAUGGGCCCUUGGCAGCUCUGUGGCUGACGAAAGUCAGCAUCUG [#17 SameState-TheophyllineA] . Reported apparent KD of MS2 coat protein?
Marked response: 109

Exam item: Reported apparent KD of MS2 coat protein for UAAUUUAUAGGGUAUAUCAGAUUAACUGAAGGAGCGUGGUAAUACACAGGUAGGUCGCAGAUGGAACAUGAGGAUCACCCAUGUU [JR_ExcArginiA_Sub016] : what is it?
Marked response: 27

====

Test system: MS2 coat protein
Experiment: apparent KD of MS2 coat protein; designed switch direction (-1 OFF switch, 1 ON switch): -1; higher = weaker reporter binding
Conditions: input ligand: none
Label 1 when apparent KD of MS2 coat protein is at or above 40 nM; anything below gets 0.

- macromolecule-sequence: "UCAGGUGCAGGAUAUACAUGAGGAUCACCCAUGUAGAUCAACCAGCGAUAGCUGGAAUGUAGAAGGGCACCUGA [E3/5-D2] (Eterna round: R97, puzzle: Exclusion 3)"
  target-desc: "MS2 coat protein"
  class-label: 0

Exam item: Hello, I need to know if ACAAGCUUUUAGAUUUUCAACAUGAGGAUCACCCAUGUUCGUCUUGUGCUAGUGCGAGUGCGGUGUACUCGUAUUAG [JL TOV1 3.82 sellena mod] (Eterna round: R97, puzzle: Sensor, turn-off variant 1) has measured apparent KD of MS2 coat protein not below 40 nM. Thanks!
Marked response: 0

Exam item: Could you please find out whether UAUUGUAGACAGGAUAUCUAUCGGGUAACCCGAAGAGAAGGGUCUACAUGAGGAUCACCCAUGUGGCCCGUUUU [EX6 B.29] (Eterna round: R97, puzzle: Exclusion 6) has apparent KD of MS2 coat protein that meets 40 nM or exceeds it?
Marked response: 0

Exam item: Decide: is the reported value of apparent KD of MS2 coat protein for AUUGUUUAUGUAGGAUAUGCCUGGCGUGCCUUCGCAGAAGGACAUGAGGAUCACCCAUGUAUUGCGGUCUGCGUUCAGAUCGCG [salish99_ExNG1_r4_026] (Eterna round: R96, puzzle: Exclusion NG 1) equal to or greater than 40 nM?
Marked response: 1

====

Reported apparent KD of K4 kissing-loop reporter values for the following sequences.
System: K4 kissing-loop RNA reporter;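 note: bound reporter read as fluorescence of individual clusters on recovered sequencing chips by microscopy, with normalized cluster intensities fitted with a binding model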
Assay: apparent KD of K4 kissing-loop reporter; higher = weaker reporter binding
Details: Eterna round: R107; input ligand: tryptophan 2.4 mM
Express your answer in nM, writing the number without its unit.

Known results for sequences:
- macromolecule-sequence: "AAAAUAAUCCAGUGAUGUUGGUAUCCAGAUACCAGCCAGGAAACUGGCCCUUGGCAGCUGUGGACGUACAAAAUAAGUACGUCCU [#OpenEnded 10 #StaticStem #K4Early]"
  endpoint-label: "apparent KD of K4 kissing-loop reporter"
  units-symbol: "nM"
  result-number: 355
- macromolecule-sequence: "GGCAGAGUGAUGUUCGCCCUUUACCUUGAUACCAGUUCAUCUCAAAACCCUUGGCAGCAAGUGUGUAAGAGCGGUAUUGGUCAAU [theeternabot_exclusion_KL_Theo_A_1]"
  endpoint-label: "apparent KD of K4 kissing-loop reporter"
  units-symbol: "nM"
  result-number: 339

Exam item: Which apparent KD of K4 kissing-loop reporter is listed for AAUAUAAAGCAGUGAUGUUGCUUAUGAGAAGGAGCGCACGAAAGUGCAGGUAGGUCGCUCAGCCAAGUGGACGAAAACGUCCACA [whbob_SS_Arginine_A_sa106] ?
Marked response: 72.1

Exam item: Requested field: apparent KD of K4 kissing-loop reporter. Item: AACGCUGGUGAAUAACACUAGCGAAAAUUCCGAGGACCGGUACGGCCGCCACUCGGCUAACUGCGAGUGAUGUUCGAUAAUAAAA [Mat - Mod of OpenEnded 3 - D9]
Marked response: 60.2

Exam item: Could you share which apparent KD of K4 kissing-loop reporter value was measured for AGACUACCACACUGUCAAUAGACAGUGGACUAGGAUAUGCUGAUAAGCAGAAGGAGUGAUGUUCCUAGGUAGUCAAUAAAAUAAU [FmnAX 13 G28] ?
Marked response: 396

Exam item: Return reported apparent KD of K4 kissing-loop reporter; argument: GGGAACUCUUACGAUACCAGCCGGAGUGAUGUUCCGUGCUUGGACGUAGUAACCCGCACCGGCCCUUGGCAGCGUGGAUCUUGUG [Esgeonin]
Marked response: 83.5
